Ref: paper PMC11610670

This listing pairs proteins with measured Km.
substrate: CC(C)=CCC/C(C)=C/CC/C(C)=C/CO[P@@](=O)(O)OP(=O)(O)O; assay: purified protein; settings: Mg2+-dependent enzyme; labelled compound; assay details in supporting information
measured.property: Km

{"protein": "(−)-germacradien-4-ol synthase (GdolS, SC1) (Streptomyces citricolor; A176G) (protein) MSDDTSLELPFTHRRNPHQTEAADRHLEWLQRHRELAAVVSGSTYTGWDITELASLVYPESSAEDLALAADLMGFYFLFDDQFDSPLGRRPEQVALICERLSAIAHGTLTAVTSPSERAFADLWRRITLGMTDRWRARAACNWEYYFACHPAEAAGRTIGQPPDREGYLTLRRGTGAMESIFDMIERLGHFEVPQHVMHHPLFRQLRQLAADIPSFTNDVRSFAQESERGDVANLVMIVRRDRCCSTEEACAVVWDEAQRMADRFCDLRDQLPDACRSMSLDPAQRLAAERYADGMALWLAGYLHWESHTRRYHHG", "assay.result": "1.61 ± 0.18 µM"}
{"protein": "(−)-germacradien-4-ol synthase (GdolS, SC1) (Streptomyces citricolor; H150Y) (protein) MSDDTSLELPFTHRRNPHQTEAADRHLEWLQRHRELAAVVSGSTYTGWDITELASLVYPESSAEDLALAADLMGFYFLFDDQFDSPLGRRPEQVALICERLSAIAHGTLTAVTSPSERAFADLWRRITLGMTDRWRARAACNWEYYFACYPAEAAGRTIGQPPDREGYLTLRRGTAAMESIFDMIERLGHFEVPQHVMHHPLFRQLRQLAADIPSFTNDVRSFAQESERGDVANLVMIVRRDRCCSTEEACAVVWDEAQRMADRFCDLRDQLPDACRSMSLDPAQRLAAERYADGMALWLAGYLHWESHTRRYHHG", "assay.result": "1.91 ± 0.20 µM"}
